tested.target: human URAT1 (Homo sapiens, UniProt Q96S37)
Construct: Human URAT1 full length cDNA was subcloned to expression vector pcDNA3.1
Sequence (Q96S37 1-553): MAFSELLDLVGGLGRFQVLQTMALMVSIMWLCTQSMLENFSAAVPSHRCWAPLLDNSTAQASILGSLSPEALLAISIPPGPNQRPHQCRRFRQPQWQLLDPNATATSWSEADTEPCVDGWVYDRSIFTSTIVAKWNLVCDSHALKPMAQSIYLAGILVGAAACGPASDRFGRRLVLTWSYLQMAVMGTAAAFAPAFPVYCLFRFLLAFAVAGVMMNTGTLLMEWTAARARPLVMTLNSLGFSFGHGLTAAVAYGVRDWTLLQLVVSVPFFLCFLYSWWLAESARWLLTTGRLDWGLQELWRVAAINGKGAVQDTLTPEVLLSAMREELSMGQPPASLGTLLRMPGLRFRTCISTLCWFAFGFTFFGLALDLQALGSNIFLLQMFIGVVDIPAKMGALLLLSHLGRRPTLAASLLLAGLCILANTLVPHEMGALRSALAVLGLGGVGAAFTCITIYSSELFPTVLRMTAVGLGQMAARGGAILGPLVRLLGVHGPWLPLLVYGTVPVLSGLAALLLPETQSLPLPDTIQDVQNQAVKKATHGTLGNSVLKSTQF
procedure.summary: Uric acid transport inhibitory test using human URAT1-expressing cells
details: human URAT1 expressing HEK293 cells, uptake of 14C-labeled uric acid for 5 min, room temperature; read-out: hURAT1 (IC50, concentration necessary for inhibiting the uric acid transport rate by 50%)
pIC50: −log10 of the molar value.
Property: pIC50; scope: individual molecules

Reference set, count: 2
1. O=C(c1cc(Cl)c(O)c(Cl)c1)N1CCOc2cc(Cl)ccc21    6.00 to 7.00
2. CCN(CC)S(=O)(=O)c1ccc2c(c1)N(C(=O)c1cc(Cl)c(O)c(Cl)c1)CCO2    6.00 to 7.00

Next up:
Value of measured pIC50 for the entry O=C(c1cc(Cl)c(O)c(Cl)c1)N1CCOc2ccc(-c3ccccc3)cc21 : 5.52 to 6.00
